# assay target: human GC-A (Homo sapiens, UniProt P16066)
# Construct: host or cells: HEK293
# Sequence (P16066 33-1061): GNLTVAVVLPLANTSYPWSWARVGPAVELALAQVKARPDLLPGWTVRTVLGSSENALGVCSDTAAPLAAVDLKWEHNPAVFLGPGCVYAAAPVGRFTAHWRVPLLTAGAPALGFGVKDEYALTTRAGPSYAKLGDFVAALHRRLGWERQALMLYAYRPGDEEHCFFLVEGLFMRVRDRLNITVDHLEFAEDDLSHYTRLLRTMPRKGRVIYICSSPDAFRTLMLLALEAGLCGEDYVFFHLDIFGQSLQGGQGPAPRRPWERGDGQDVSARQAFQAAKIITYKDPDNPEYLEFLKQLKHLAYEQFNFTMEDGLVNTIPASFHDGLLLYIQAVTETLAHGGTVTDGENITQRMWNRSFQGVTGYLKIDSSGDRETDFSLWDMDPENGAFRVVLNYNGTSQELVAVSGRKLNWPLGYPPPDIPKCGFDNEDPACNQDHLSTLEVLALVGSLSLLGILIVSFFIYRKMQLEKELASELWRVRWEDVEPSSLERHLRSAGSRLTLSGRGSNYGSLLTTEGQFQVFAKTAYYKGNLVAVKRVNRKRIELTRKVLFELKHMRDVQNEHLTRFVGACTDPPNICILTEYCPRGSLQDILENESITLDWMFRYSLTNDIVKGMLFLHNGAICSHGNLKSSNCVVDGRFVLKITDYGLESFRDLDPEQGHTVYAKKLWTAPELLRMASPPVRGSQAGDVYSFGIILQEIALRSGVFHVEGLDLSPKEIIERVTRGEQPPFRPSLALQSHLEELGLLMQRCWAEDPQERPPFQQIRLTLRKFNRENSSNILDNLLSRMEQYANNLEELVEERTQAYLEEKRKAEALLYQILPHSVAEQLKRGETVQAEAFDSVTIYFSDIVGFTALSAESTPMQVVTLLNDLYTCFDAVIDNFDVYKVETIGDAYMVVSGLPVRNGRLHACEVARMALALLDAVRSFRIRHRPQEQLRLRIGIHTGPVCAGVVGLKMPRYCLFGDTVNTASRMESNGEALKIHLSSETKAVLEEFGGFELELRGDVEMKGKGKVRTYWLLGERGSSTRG
# Sequence (P01160 124-151 partner limits assumed): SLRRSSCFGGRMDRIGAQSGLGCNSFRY
# test method notes: cGMP potentiation (HTRF) in human GC-A overexpressing HEK293 cells with EC20 ANP
# Type: cell-based
# assay conditions: HEK293; Table 1; 100% = saturating ANP (10 nM), 0% = EC20 ANP; read-out: Emax (%)
measured metric: Emax

So what does the record say about Emax for Cn1cc(N2CCCC(C(=O)Nc3nc4c(F)cc(F)cc4s3)C2)cn1 (stereo not drawn) [JUF-S4-023] ?
81 to 86%

Form field: reported Emax of O=C(Nc1nc2c(F)cc(F)cc2s1)C1CCCN(c2cccnc2)C1 (stereo not drawn) [JUF-S4-025]
104 to 135%

Item under review: O=C(Nc1nc2c(F)cc(F)cc2s1)C1CCCN(C2CNC2)C1 (stereo not drawn) [JUF-S4-029A] . Reported Emax?
84 to 89%
